experimental_system: FAAH (solubilized liver plasma membrane extract) (Rattus norvegicus, UniProt P97612)
Construct: using a solubilized liver plasma membrane extract containing FAAH
Sequence (P97612 whole entry): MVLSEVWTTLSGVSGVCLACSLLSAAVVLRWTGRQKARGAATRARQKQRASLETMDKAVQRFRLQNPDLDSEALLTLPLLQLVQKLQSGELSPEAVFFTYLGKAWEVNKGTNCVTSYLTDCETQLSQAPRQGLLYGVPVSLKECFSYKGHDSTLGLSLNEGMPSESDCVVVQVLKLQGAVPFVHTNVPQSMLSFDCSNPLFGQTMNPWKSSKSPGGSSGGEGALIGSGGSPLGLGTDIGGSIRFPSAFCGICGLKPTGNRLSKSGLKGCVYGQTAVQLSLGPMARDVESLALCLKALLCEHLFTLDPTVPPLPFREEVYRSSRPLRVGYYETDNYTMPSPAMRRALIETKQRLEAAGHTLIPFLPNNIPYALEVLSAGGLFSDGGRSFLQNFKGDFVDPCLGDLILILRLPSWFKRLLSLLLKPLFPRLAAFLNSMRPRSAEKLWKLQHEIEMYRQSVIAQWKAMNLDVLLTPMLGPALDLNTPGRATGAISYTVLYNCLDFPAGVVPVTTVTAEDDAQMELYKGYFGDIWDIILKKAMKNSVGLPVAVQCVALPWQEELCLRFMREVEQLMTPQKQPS
experimental_details: FAAH enzyme assay, hydrolysis of 14C-oleamide to oleic acid
measurement_conditions: 14C-oleamide substrate, pH 9.0, 20-23° C., Dixon method
quantity_measured: Ki (µM)
Write the answer as a number in µM, unit excluded.

Query: Give FAAH (solubilized liver plasma membrane extract) (Rattus norvegicus, UniProt P97612) Ki for O=C(CCCCCCc1ccccc1)c1ncc(C(=O)N2CCOCC2)o1 [Example 4]
Result: 0.024

Query: Give FAAH (solubilized liver plasma membrane extract) (Rattus norvegicus, UniProt P97612) Ki for O=C(CCCCCCc1ccccc1)c1ncc(C(=O)N2CCSCC2)o1 [Example 6]
Result: 0.01

Query: Give FAAH (solubilized liver plasma membrane extract) (Rattus norvegicus, UniProt P97612) Ki for CNC(=O)c1cnc(C(=O)CCCCCCc2ccccc2)o1 [Example 8]
Result: 0.007

Query: Give FAAH (solubilized liver plasma membrane extract) (Rattus norvegicus, UniProt P97612) Ki for CN1CCN(C(=O)c2cnc(C(=O)CCCCCCc3ccccc3)o2)CC1 [Example 7]
Result: 0.08

Query: Give FAAH (solubilized liver plasma membrane extract) (Rattus norvegicus, UniProt P97612) Ki for O=C(CCCCCCc1ccccc1)c1ncc(C(=O)N2CCCCC2)o1 [Example 5]
Result: 0.008
